Test: Half-life in male Sprague-Dawley rat at 0.5 mg/kg, iv measured after 32 hrs by LC-MS/MS analysis
Details: in vivo
assay.readout: half-life at 32 h (h)
Report the figure in h without appending any unit label.

Looking up O=C(Nc1cccc(C(F)(F)F)c1)c1cn[nH]c1-c1ccccc1Cl , I found its half-life at 32 h recorded as 2.53

* * *

Test: in vivo
Details: male, Sprague-Dawley, rat, po, 5 mg/kg
Description: Cmax in male Sprague-Dawley rat at 5 mg/kg, po measured after 32 hrs by LC-MS/MS analysis
assay.readout: Cmax at 32 h (ng/mL)
# output: bare number, implied unit ng/mL

| mol.smiles | Cmax at 32 h, ng/mL |
| --- | --- |
| O=C(Nc1cccc(C(F)(F)F)c1)c1cn[nH]c1-c1ccccc1Cl | 1290 |

Next, consider the following compound.
Recorded result, Cc1onc(-c2ccccc2OC(F)F)c1C(=O)Nc1cccc(C(F)(F)F)c1 , Cmax at 32 h: 35.9

* * *

Assay: Clearance in male Sprague-Dawley rat at 5 mg/kg, po measured after 32 hrs by LC-MS/MS analysis
Settings: in vivo
assay.readout: CL/F at 32 h

Form field CL/F at 32 h, entry O=C(Nc1cccc(C(F)(F)F)c1)c1cn[nH]c1-c1ccccc1Cl : 8.83 mL/min/kg

* * *

Experiment: Half-life in male Sprague-Dawley rat at 5 mg/kg, po measured after 32 hrs by LC-MS/MS analysis
Conditions: in vivo
assay.readout: half-life at 32 h (h)
Quick note: give the figure in h, leave out the unit.

For record O=C(Nc1cccc(C(F)(F)F)c1)c1cn[nH]c1-c1ccccc1Cl the listed half-life at 32 h is 5.09

* * *

Entries annotated with measured AUC(0-t) at 32 h
Test: in vivo
Conditions: male, Sprague-Dawley, rat, po, 5 mg/kg
Description: AUC (0 to t) in male Sprague-Dawley rat at 5 mg/kg, po measured after 32 hrs by LC-MS/MS analysis
Report only the number, with the unit ng·h/mL understood.

The compound listed as O=C(Nc1cccc(C(F)(F)F)c1)c1cn[nH]c1-c1ccccc1Cl shows AUC(0-t) at 32 h equal to 11100

Lookup result for Cc1onc(-c2ccccc2OC(F)F)c1C(=O)Nc1cccc(C(F)(F)F)c1 ; measured AUC(0-t) at 32 h: 194

* * *

Reported values of Tmax at 32 h for individual entries
Test: in vivo
Conditions: male, Sprague-Dawley, rat, iv, 0.5 mg/kg
Description: Tmax in male Sprague-Dawley rat at 0.5 mg/kg, iv measured after 32 hrs by LC-MS/MS analysis
Please reply with the bare figure in min and do not write the unit itself.

Looking up Cc1onc(-c2ccccc2OC(F)F)c1C(=O)Nc1cccc(C(F)(F)F)c1 , I found its Tmax at 32 h recorded as 1.8

The compound identified as O=C(Nc1cccc(C(F)(F)F)c1)c1cn[nH]c1-c1ccccc1Cl registered its Tmax at 32 h at 1.8

* * *

Target: Endothelial PAS domain-containing protein 1 (Homo sapiens, UniProt Q99814)
Sequence (Q99814 whole entry, the tested form may be a part): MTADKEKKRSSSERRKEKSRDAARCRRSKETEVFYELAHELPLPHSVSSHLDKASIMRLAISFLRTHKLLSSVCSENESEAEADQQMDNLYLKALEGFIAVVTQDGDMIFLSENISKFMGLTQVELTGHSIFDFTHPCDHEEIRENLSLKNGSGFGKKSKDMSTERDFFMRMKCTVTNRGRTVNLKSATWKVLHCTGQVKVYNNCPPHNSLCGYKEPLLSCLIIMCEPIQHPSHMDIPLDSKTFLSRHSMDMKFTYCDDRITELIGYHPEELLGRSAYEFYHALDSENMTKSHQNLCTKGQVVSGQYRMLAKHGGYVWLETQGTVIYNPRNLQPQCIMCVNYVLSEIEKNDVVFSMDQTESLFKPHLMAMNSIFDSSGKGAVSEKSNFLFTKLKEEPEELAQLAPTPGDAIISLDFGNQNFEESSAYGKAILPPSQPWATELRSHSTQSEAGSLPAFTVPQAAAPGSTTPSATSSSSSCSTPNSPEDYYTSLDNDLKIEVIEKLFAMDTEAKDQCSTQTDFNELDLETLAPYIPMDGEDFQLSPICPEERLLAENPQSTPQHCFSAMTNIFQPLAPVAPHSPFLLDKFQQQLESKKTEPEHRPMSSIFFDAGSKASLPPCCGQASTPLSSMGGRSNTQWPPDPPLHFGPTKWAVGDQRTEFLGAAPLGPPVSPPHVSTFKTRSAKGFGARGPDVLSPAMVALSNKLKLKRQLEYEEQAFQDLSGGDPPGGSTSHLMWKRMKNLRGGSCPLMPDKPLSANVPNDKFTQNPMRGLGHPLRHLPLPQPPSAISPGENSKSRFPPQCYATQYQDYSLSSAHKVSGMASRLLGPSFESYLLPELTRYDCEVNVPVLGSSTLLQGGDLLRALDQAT
pEC50: recorded values
Value format note: pEC50 is -log10 of concentration (mol/L); just state the number.

| mol.smiles | pEC50 |
| --- | --- |
| Cc1onc(-c2ccccc2Cl)c1C(=O)N1CCOCC1 | 5.01 |
| Cc1onc(-c2ccccc2OC(F)F)c1C(=O)Nc1cccc(C(F)(F)F)c1 | 5.64 |
| Cc1onc(-c2ccccc2Cl)c1C(=O)Nc1cc(C(F)(F)F)ccn1 | 5.25 |
| O=C(Nc1cccc(C(F)(F)F)c1)c1cn[nH]c1-c1ccccc1Cl | 5.75 |
| Cc1onc(-c2ccccc2Cl)c1C(=O)Nc1cccc(C#N)c1 | 5.21 |

Form: molecule = Cc1onc(-c2ccccc2F)c1C(=O)Nc1cccc(C(F)(F)F)c1 ; pEC50 = 5.00

// sample Nc1ncc(C(=O)Nc2cccc(C(F)(F)F)c2)c(-c2ccccc2Cl)n1 , its pEC50 was 5.30
